As shown below, each of these compounds has a reported hERG current change (%, negative = inhibition) at 10uM value.
targetOrTestSystem: human ether-à-go-go-related gene (hERG) potassium channel (human);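 further: peak tail current of the secondary pulse compared with the same well before compound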
Sequence (Q12809 whole entry, looked up): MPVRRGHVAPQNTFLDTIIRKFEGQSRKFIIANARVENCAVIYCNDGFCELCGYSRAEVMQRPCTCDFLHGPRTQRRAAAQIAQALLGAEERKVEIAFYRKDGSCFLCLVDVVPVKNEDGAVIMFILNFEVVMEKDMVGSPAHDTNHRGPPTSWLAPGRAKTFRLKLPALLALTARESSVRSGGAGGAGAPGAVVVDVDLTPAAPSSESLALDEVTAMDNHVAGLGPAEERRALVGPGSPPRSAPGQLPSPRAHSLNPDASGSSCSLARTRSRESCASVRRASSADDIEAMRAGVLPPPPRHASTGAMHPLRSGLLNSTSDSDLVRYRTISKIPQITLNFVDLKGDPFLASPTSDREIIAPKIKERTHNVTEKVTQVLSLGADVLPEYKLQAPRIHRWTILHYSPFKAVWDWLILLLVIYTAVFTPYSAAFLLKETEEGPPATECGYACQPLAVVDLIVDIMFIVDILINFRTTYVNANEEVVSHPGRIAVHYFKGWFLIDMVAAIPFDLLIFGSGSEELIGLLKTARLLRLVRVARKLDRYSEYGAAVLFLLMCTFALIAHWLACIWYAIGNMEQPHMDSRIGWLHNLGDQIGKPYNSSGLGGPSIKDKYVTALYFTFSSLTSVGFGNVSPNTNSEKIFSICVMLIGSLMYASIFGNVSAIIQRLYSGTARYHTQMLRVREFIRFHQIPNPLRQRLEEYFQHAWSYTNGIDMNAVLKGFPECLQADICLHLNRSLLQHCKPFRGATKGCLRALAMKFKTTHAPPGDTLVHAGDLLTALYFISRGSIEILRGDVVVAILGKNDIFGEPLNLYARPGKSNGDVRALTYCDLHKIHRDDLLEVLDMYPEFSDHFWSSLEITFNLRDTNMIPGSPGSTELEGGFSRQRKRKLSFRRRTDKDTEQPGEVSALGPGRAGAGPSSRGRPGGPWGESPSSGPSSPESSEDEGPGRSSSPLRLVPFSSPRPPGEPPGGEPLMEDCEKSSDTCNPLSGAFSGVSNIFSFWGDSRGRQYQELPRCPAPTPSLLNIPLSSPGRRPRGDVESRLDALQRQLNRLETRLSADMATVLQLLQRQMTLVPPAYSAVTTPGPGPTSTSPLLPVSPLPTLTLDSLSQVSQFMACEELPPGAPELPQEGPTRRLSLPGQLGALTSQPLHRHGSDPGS
assayOverview: primary screen, population patch clamp on CHO cells stably expressing hERG; higher = less effect of the substance
In all, about 310,000 compounds went through this assay and about 14,000 (4.5%) showed an effect of 50% or more. The effect is printed as a negative number. The sample holds strong results, similar compounds and a random draw of the others, so the mix is not that of the screen.
Please give a number only; it is taken to be in %.

A selection of reference data follows.
structureSmiles	valueUnit	recordedResult
Cl.Fc1ccc(CCNCc2ccccc2Cl)cc1	%	1.24
Cc1ccc(CSc2[nH]c(=O)ncc2C)cc1	%	10.7
Fc1ccc(NC(=S)NCCc2ccccn2)cc1	%	7.88
Cl.c1cncc(CNCCc2c[nH]c3ccccc23)c1	%	4.01
Cl.c1ccc(CCNCc2cccnc2)cc1	%	-0.175

Query :: Could you share what hERG current change (%, negative = inhibition) at 10uM was measured for "Cl.Clc1ccccc1CNCc1ccncc1" , tested on human ether-à-go-go-related gene (hERG) potassium channel (human)?;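 further: peak tail current of the secondary pulse compared with the same well before compound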
Result :: -0.497

Where these numbers come from: paper PMC4336329
